# testedTarget: T1, human claudin 18 splice variant 2 (CLDN18.2) (human)
# T1 construct: also called claudin 18 isotype 2
# runDescription: flow cytometry, HEK293 cells stably expressing CLDN18.2; APC-conjugated secondary antibody; binding assay 3; normalized to IMAB362
quantityMeasured: Max. binding normalized [%] (%)

>>> assayresult("mu mAB362 (mouse IgG1) (antibody, V domains shown, also called mu muAB362 (IgG1)) VH: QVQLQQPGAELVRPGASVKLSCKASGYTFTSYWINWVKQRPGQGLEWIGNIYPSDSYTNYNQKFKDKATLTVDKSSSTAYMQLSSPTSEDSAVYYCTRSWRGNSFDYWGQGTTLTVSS VL: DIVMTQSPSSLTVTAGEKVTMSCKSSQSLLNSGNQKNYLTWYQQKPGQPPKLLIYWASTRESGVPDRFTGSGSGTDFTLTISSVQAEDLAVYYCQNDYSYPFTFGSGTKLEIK")
111
>>> assayresult("mu mAB294 (antibody, V domains shown, Tied by its number) VH: QIQLVQSGPELKKPGETVKISCKASGYTFTNYGMNWVKQAPGKGLKWMGWINTNTGEPTYAEEFKGRFAFSLETSASTAYLQINNLKNEDTATYFCARLGFGNAMDYWGQGTSVTVSS VL: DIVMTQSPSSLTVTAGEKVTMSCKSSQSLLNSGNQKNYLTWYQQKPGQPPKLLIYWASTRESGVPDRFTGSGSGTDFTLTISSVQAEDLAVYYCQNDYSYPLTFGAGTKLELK")
12
>>> assayresult("mu mAB279 (antibody, mouse IgG2a, V domains shown, mouse IgG2a kappa) VH: QVQLQQSGAELARPGASVKLSCKASGYTFTDYYINWVKQRTGQGLEWIGEIYPGSGNTYYNEKFKGKATLTADKSSSTAYMQLSSLTSEDSAVYFCARSYGAFDYWGQGTTLTVSS VL: DIVMTQSQKFMSTSVGDRVSITCKASQNVRTAVAWYQQKPGQSPKALIYLASNRHTGVPDRFTGSGSGTDFTLTISNVQSEDLADYFCLQHWNYPLTFGGGTKLEIK")
1
>>> assayresult("mu mAB62 (antibody, mouse IgG2a, V domains shown, mouse IgG2a kappa) VH: QVQLQQSGAELMKPGASVKISCKATGYTFSSYWIEWVKQRPGHGLEWIGEILPGSGSTNYNEKFKGKATFTADTSSNTAYMQLSSLTSEDSAVYYCARYDYPWFAYWGQGTLVTVSA VL: QIVLTQSPAIMSASPGEKVTITCSASSSVSYMHWFQQKPGTSPKLWIYSTSNLASGVPARFSGSGSGTSYSLTISRMEAEDAATYYCQQRSSYPPTFGGGTKLEIK")
35
